Provenance of the data: paper PMC4660055

TARGET DESC: T1, PmrA (double-substitution variant) (Klebsiella pneumoniae, UniProt W9BNR5 1-223, W181G;I220D)
T1 sequence: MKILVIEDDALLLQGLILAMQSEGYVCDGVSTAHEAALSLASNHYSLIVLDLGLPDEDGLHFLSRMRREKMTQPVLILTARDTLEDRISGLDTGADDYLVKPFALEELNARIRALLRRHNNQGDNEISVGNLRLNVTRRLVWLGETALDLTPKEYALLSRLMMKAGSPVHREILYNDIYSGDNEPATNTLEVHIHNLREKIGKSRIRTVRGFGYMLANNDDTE
METHOD DESCRIPTION: fluorescence polarization; BeF3-, Mg2+ (activation); FP: 10 mM sodium phosphate, 15 mM NaCl, pH 7.0, 298 K, 6 nM FAM-DNA; proteins activated with 5.3 mM BeCl2, 35 mM NaF, 7 mM MgCl2. NMR: 20 mM Tris-HCl, 100 mM Na
ATTRIBUTE MEASURED: pKd
# pKd = -log10(concentration in molar units)

Prompt: For 25-bp FAM-labelled DNA (FP) (dsDNA) DNA 1: ATTTCTTAATATTATCCTAAGCAAG DNA 2: TTGCTTAGGATAATATTAAGAAATC , what is its reported pKd?
Response: 6.70
